Test system: IL2 release from Jurkat cells
Experiment: Effect of compounds on IL-2 secretion in T lymphocytes (Jurkat 6.1, anti-CD3/anti-CD28 stimulated, ELISA)
Format: cell-based
Conditions: compound 10 uM, 30 min pre-treatment, 24 h; DMSO control 320.67 (plate 2), 338.25 (plate 3)
MEASURE NAME: IL-2 production, absolute values (pg/mL)
Numbers only here, please. The scale is pg/mL.

Previously resolved entries follow.
| MOL SMILES | IL-2 production, absolute values (pg/mL) |
| --- | --- |
| CCOC(=O)c1ccc(C[C@]2(C3=Cc4ccccc4C3)Cc3ccccc3[C@@H]2O)cc1 | 105.11 |
| CC(C)C[C@H](N)C(=O)O[C@@H]1c2ccccc2C[C@@]1(Cc1ccc(C(=O)N(C)C)cc1)C1=Cc2ccccc2C1 | 14.29 |
| CNC(=O)c1ccc(C[C@]2(C3=Cc4ccccc4C3)Cc3ccccc3[C@@H]2O)cc1 | 113.67 |

(Q) May I ask what IL-2 production, absolute values has been recorded for CCOC(=O)c1ccc(C[C@@]2(C3=Cc4ccccc4C3)Cc3ccccc3[C@H]2OC(=O)[C@@H](N)CC(C)C)cc1 ?
(A) 12.71

(Q) What about this compound? CCCOC(=O)c1ccc(C[C@]2(C3=Cc4ccccc4C3)Cc3ccccc3[C@@H]2OC(=O)[C@@H](N)CC(C)C)cc1
(A) 71.38

(Q) What about this compound? CC(C)C[C@H](N)C(=O)O[C@H]1c2ccccc2C[C@]1(Cc1ccc(C(=O)N(C)C)cc1)C1=Cc2ccccc2C1
(A) 268.63

(Q) What about this compound? CCCOC(=O)c1ccc(C[C@@]2(C3=Cc4ccccc4C3)Cc3ccccc3[C@H]2OC(=O)[C@@H](N)CC(C)C)cc1
(A) 62.50

(Q) What about this compound? CC(C)C[C@H](N)C(=O)O[C@H]1c2ccccc2C[C@]1(Cc1ccc(C(=O)NCCO)cc1)C1=Cc2ccccc2C1
(A) 138.13

(Q) What about this compound? O=C(NCCO)c1ccc(C[C@@]2(C3=Cc4ccccc4C3)Cc3ccccc3[C@H]2O)cc1
(A) 137.78

---

Test: Solubility in Milli-RO water and pH buffers
Format: physicochemical
Conditions: pH 4.0 buffer, pH 4, aqueous buffer; read-out: solubility, pH 4.0 Buffer
Overview of reported solubility across a group of compounds:
Numbers only here, please. The scale is µg/mL.

| MOL SMILES | solubility, µg/mL |
| --- | --- |
| O=C(O)c1ccc(C[C@]2(C3=Cc4ccccc4C3)Cc3ccccc3[C@H]2O)cc1 | 0.33 |

(Q) May I ask what solubility has been recorded for O=C(O)c1ccc(C[C@@]2(C3=Cc4ccccc4C3)Cc3ccccc3[C@H]2O)cc1 ?
(A) 0.5

---

Experiment: Solubility in Milli-RO water and pH buffers
Assay type: physicochemical
Details: pH 7.0 buffer, pH 7, aqueous buffer; read-out: solubility, pH 7.0 Buffer
MEASURE NAME: solubility

| MOL SMILES | RESULT |
| --- | --- |
| O=C(O)c1ccc(C[C@@]2(C3=Cc4ccccc4C3)Cc3ccccc3[C@H]2O)cc1 | > 60000 µg/mL |

(Q) May I ask what solubility has been recorded for O=C(O)c1ccc(C[C@]2(C3=Cc4ccccc4C3)Cc3ccccc3[C@H]2O)cc1 ?
(A) 320 µg/mL

---

Tested on: IL2 release from Jurkat cells
Experiment: Effect of compounds on IL-2 secretion in T lymphocytes (Jurkat 6.1, anti-CD3/anti-CD28 stimulated, ELISA)
Type: cell-based
Conditions: compound 10 uM, 30 min pre-treatment, 24 h; DMSO control 320.67 (plate 2), 338.25 (plate 3)
Overview of reported IL-2 production, absolute values across a group of compounds:
Numbers only here, please. The scale is pg/mL.

| COMPOUND | ASSAY TARGET | IL-2 production, absolute values (pg/mL) |
| --- | --- | --- |
| CC(C)C[C@H](N)C(=O)O[C@H]1c2ccccc2C[C@]1(Cc1ccc(C(=O)O)cc1)C1=Cc2ccccc2C1 | IL2 release from Jurkat cells | 149.63 |
| O=C(O)c1ccc(C[C@]2(C3=Cc4ccccc4C3)Cc3ccccc3[C@@H]2O)cc1 (single isomer, unassigned) | IL2 release from Jurkat cells | 98.57 |
| CC(C)C[C@H](N)C(=O)O[C@@H]1c2ccccc2C[C@@]1(Cc1ccc(C(=O)O)cc1)C1=Cc2ccccc2C1 | IL2 release from Jurkat cells | 135.63 |
| O=C(O)c1ccc(C[C@]2(C3=Cc4ccccc4C3)Cc3ccccc3[C@H]2O)cc1 | IL2 release from Jurkat cells | 134.14 |
| NCC(=O)O[C@@H]1c2ccccc2C[C@@]1(Cc1ccc(C(=O)O)cc1)C1=Cc2ccccc2C1 | IL2 release from Jurkat cells | 225.63 |

(Q) May I ask what IL-2 production, absolute values has been recorded for CNC(=O)c1ccc(C[C@@]2(C3=Cc4ccccc4C3)Cc3ccccc3[C@H]2O)cc1 ?
(A) 113.33

(Q) What about this compound? CC(C)C[C@H](N)C(=O)O[C@H]1c2ccccc2C[C@]1(Cc1ccc(C(N)=O)cc1)C1=Cc2ccccc2C1
(A) 189.38

---

Test: Plasma half-life in the rat
Type: in vivo
Details: read-out: plasma half-life (t1/2) (converted)
MEASURE NAME: half-life (h)
Numbers only here, please. The scale is h.

(Q) May I ask what half-life has been recorded for O=C(O)c1ccc(C[C@@]2(C3=Cc4ccccc4C3)Cc3ccccc3[C@H]2O)cc1 ?
(A) 3

---

Test: Solubility in Milli-RO water and pH buffers
Assay type: physicochemical
Conditions: Milli-RO water, water; read-out: solubility, Milli-RO H20
Overview of reported solubility across a group of compounds:

| COMPOUND | solubility |
| --- | --- |
| O=C(O)c1ccc(C[C@@]2(C3=Cc4ccccc4C3)Cc3ccccc3[C@H]2O)cc1 [Compound 6] | > 60000 µg/mL |

Now for another entry.
(Q) May I ask what solubility has been recorded for O=C(O)c1ccc(C[C@]2(C3=Cc4ccccc4C3)Cc3ccccc3[C@H]2O)cc1 [Compound 5] ?
(A) 1.38 µg/mL

---

Overview of reported IL-2 production, absolute values across a group of compounds:
Tested on: IL2 release from Jurkat cells
Experiment: Effect of compounds on IL-2 secretion in T lymphocytes (Jurkat 6.1, anti-CD3/anti-CD28 stimulated, ELISA)
Format: cell-based
Details: compound 10 uM, 30 min pre-treatment, 24 h; DMSO control 320.67 (plate 2), 338.25 (plate 3)
Numbers only here, please. The scale is pg/mL.

Previously resolved entries follow.
| MOL SMILES | MEASURE NAME | QUANTITATIVE READOUT |
| --- | --- | --- |
| O=C(Nc1ccc(O)c(C(=O)O)c1)c1ccc(C[C@@]2(C3=Cc4ccccc4C3)Cc3ccccc3[C@H]2O)cc1 | IL-2 production, absolute values | 98.79 |
| CC[C@H](C)[C@H](N)C(=O)O[C@H]1c2ccccc2C[C@]1(Cc1ccc(C(=O)O)cc1)C1=Cc2ccccc2C1 | IL-2 production, absolute values | 192.63 |
| CC(C)C[C@H](N)C(=O)O[C@@H]1c2ccccc2C[C@@]1(Cc1ccc(C(=O)NCCO)cc1)C1=Cc2ccccc2C1 | IL-2 production, absolute values | 12.79 |

(Q) May I ask what IL-2 production, absolute values has been recorded for CC[C@H](C)[C@H](N)C(=O)O[C@@H]1c2ccccc2C[C@@]1(Cc1ccc(C(=O)O)cc1)C1=Cc2ccccc2C1 ?
(A) 174.50
